testDescription: In vitro binding affinity against Tachykinin receptor 1 in rabbit whole brain membranes using [3H][Sar9Met(O2)]-SP binding assay
pIC50: −log10 of the molar value.
readoutKind: pIC50

Exercise: # return recorded pIC50 for entry CSCCNS(=O)(=O)c1ccc(NNC(=S)N2CCCC2C(=O)NC(c2ccccc2)c2ccccc2)c([N+](=O)[O-])c1 (stereo unspecified)
Solution: < 4.30
